For each entry below, report its pIC50 value.
# Study system: 5-Lipoxygenase (Homo sapiens, UniProt P09917)
# Sequence (P09917 whole entry): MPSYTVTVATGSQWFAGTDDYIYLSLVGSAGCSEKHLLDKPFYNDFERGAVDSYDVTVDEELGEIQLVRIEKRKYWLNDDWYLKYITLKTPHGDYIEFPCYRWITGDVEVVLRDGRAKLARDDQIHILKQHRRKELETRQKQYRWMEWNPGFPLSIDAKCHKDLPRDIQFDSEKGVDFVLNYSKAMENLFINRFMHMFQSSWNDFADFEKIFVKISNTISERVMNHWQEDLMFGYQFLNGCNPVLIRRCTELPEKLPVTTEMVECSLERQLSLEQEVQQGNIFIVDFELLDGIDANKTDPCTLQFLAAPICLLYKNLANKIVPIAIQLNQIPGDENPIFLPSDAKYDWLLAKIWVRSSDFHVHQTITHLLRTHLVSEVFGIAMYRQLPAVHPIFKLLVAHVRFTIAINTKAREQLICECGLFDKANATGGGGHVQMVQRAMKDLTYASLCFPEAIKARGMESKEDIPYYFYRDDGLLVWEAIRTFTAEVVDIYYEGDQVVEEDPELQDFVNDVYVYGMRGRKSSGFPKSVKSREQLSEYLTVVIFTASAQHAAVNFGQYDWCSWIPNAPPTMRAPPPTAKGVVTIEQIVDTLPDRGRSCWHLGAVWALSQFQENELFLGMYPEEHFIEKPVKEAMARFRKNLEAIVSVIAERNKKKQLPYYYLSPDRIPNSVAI
# Protocol: Inhibition of calcium ionophore-induced LTB4 biosynthesis in human whole blood (5-lipoxygenase)
# Condition details: calcium ionophore A23187 8.3 μM, 15 min preincubation, 37° C., read-out: IC50 against 5-lipoxygenase from stimulated LTB4 formation in human whole blood
Where a name gives a salt, the structure may show the parent alone.
When answering, recall that pIC50 equals minus log10 of the concentration in mol/L, and write that number alone.

Measured pIC50 of COC1(c2cc(F)cc(OCc3ccc(N(C)C(=O)N(C)C)cc3)c2)CCOCC1 : 7.77

Value of measured pIC50 for the entry COC1(c2cc(F)cc(OCc3ccc(CNC(=O)N(C)C)cc3)c2)CCOCC1 : 5.74

The recorded pIC50 for entry COC1(c2cccc(Sc3ccc(N(C)C(=O)N4CCN(C)CC4)cc3)c2)CCOCC1 [Example 33, hydrochloride salt] equals 7.10

Entry C=CCN(C)C(=O)N(C)c1ccc(Sc2cccc(C3(OC)CCOCC3)c2)cc1 — recorded pIC50 = 7.52

The molecule identified as COC1(c2cccc(Sc3ccc(N(C)C(=O)N4CCN(C)CC4)cc3)c2)CCOCC1 [Example 31] registered its pIC50 at 7.15
